# experimental_target: T1, TNFR2-His (Sino Biological, 10417-H08H, NP_001057.1 Met1-Asp257, with multi-histidine tag expressed on … (human, UniProt P20333 23-257))
# T1 construct: range 1-257; Bought protein; also called recombinant human TNFR2 protein; TNFR2-His antigen; not shown: C-terminal multi-histidine tag
# T1 sequence (looked up): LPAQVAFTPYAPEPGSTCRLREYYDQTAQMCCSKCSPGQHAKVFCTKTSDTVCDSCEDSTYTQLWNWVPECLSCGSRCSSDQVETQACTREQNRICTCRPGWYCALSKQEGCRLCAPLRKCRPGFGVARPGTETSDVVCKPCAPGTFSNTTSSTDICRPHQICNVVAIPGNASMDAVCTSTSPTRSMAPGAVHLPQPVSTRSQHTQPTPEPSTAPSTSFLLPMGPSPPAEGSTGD
# protocol_text: BLI, antibody captured on AHC probe, TNFR2-His in solution
property: Kd (nM)

1) 11G2huVH5 + huVL1(P07266) (antibody, V domains shown, Humanized 11G2) VH: QVQLVQSGAEVKKPGASVKVSCKASGYTFITYDINWVRQATGQGLEWIGWIYPRDGNTQYAQKFQGRVTMTRNTSISTAYMELSSLRSEDTAVYYCARGDRDYGYFDVWGQGTTVTVSS VL: DIQMTPSTSSLSASVGDRVTITCRASQDISNYLNWYQQKPGKAVKLLIYFKSKLHSGVPSRFSGSGSGTDFTLTISSLQPEDFATYYCQQGNTLPLTFGGGTKLELK :: 7.29
2) 11G2huVH3 + huVL2(P07268) (antibody, V domains shown, Humanized 11G2) VH: QVQLVQSGAEVKKPGASVKVSCKASGYTFITYDINWVRQATGQGLEWIGWIYPRDGNTQFNENFQGRVTMTRNTSISTAYMELSSLRSEDTAVYYCARGDRDYGYFDVWGQGTTVTVSS VL: DIQMTQSPSSLSASVGDRVTITCRASQDISNYLNWYQQKPGKAPKLLIYFKSKLHSGVPSRFSGSGSGTDFTLTISSLQPEDFATYYCQQGNTLPLTFGGGTKLEIK :: 7.28
3) 11G2huVH1 + huVL1(P07262) (antibody, V domains shown, Humanized 11G2) VH: QVQLVQSGAEVKKPGASVKLSCKASGYTFITYDINWVRQAPGQGLEWIGWIYPRDGNTQFNENFKGKATMTVDESTSTAYMEVRSLRSDDTAVYYCARGDRDYGYFDVWGQGTTVTVSS VL: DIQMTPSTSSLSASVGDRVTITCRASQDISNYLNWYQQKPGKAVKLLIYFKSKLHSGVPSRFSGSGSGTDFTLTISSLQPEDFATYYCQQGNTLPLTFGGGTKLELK :: 4.79
4) 11G2huVH2 + huVL2(P07267) (antibody, V domains shown, Humanized 11G2) VH: QVQLVQSGAEVKKPGASVKVSCKASGYTFITYDINWVRQAPGQGLEWIGWIYPRDGNTQFNENFKGRVTMTTDTSTSTAYMELRSLRSDDTAVYYCARGDRDYGYFDVWGQGTTVTVSS VL: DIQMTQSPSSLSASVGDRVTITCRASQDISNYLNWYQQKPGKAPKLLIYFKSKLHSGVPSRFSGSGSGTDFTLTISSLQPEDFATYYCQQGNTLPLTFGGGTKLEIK :: 7.3
